Source: the domain aggregation screens of Martell et al. (2025)

test: soluble fraction after stress (log2 fold change); higher = more stays soluble; pooled small domains, quantitative proteomics;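 further: 20 min heating vs room temperature control held 20 min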
experimental parameters: stress: 75 degC
Tick fulfilled if soluble fraction (log2) is -0.3 or greater. Tick not fulfilled if soluble fraction (log2) is less than -0.3.

The examples below pair each entry with its known result.
HMEYKTGIINTNKVRVRNAADADATVIFAINKDIKVKILAEENGFYKIGVSVKNRGNGEDLIGFVKKELIT    not fulfilled
HMEEYLENLTQSKLLHMLDQLSPAYKTVFTLFVLDELSHEEISKMLNISIGTSKSNLFRARKVMRVLMESE    fulfilled
HMGEFVQLKNRTGSVIEAKILNYQNGKVKLQRKDGVIFVVPISIFDRMSSSIIENKAKEMDSF    fulfilled
HMVLPELRLQGLPTAVLRLINRATALADDYRRLMEIAEDGRIDEWEAPEFERISENIQRVIAAGFEVL    fulfilled
HMGLPPIATGVNDNMSFSQAFAAARAEVGAGGAFEWHGRVYGTYYKNEWDGMSAQERHDFEIAAIRGS    fulfilled

Query block: Could you please find out whether HMIALLRLGTAPDIKAQAPLATILARHNGEMSAKDLWQRFGGEIDTFYAQLKTEVAHGWILEPT has soluble fraction (log2) that meets -0.3 or exceeds it?
Result block: not fulfilled

Query block: Could you please find out whether HMGKKGPELSENEKSIFSILSKSGSMDLTTLKEASGLSNKQWDKGIKGLGKHGLTKVIKTEDALLVEVV has soluble fraction (log2) that meets -0.3 or exceeds it?
Result block: fulfilled

Query block: Could you please find out whether HMLDVFSAEQVADVLSVSKRNLETWANNGKLIPDFIHGEVALYSKKQLEQFEQFQRFFNSSWDAERLIQP has soluble fraction (log2) that meets -0.3 or exceeds it?
Result block: not fulfilled

----------
# soluble fraction (log2) annotations
test: soluble fraction after stress (log2 fold change); higher = more stays soluble; pooled small domains, quantitative proteomics
experimental parameters: stress: 75 degC
Form rule: numeric answer, no unit written next to it.

HMPALELLVESKKPLLIHGEKIAEDINLFDREKYFIDDELIRIVKEFPSLKIILEHVSSKYGAD    -2.18
HMATYNEVLKRLIEERKRLGLSQQEMARLVHITQSNYSKVEKGLHRLSYEELKYLSKANVDIFYILT    -0.0786

# evaluate next
Query block: Look up soluble fraction (log2): HMSTFTPYLVKVTTSVLNIRKGAGTNYGTNGSIRDMGTYTIVAEADGQGASKWGKLKSGAGWISLDYTKK
Result block: -2.33

----------
test: soluble fraction after stress (log2 fold change); higher = more stays soluble; pooled small domains, quantitative proteomics
experimental parameters: stress: 75 degC
reported endpoint: soluble fraction (log2)
Form rule: numeric answer, no unit written next to it.

HMTETPDDLLAALKKNKKAQATFDAFSPSNKKEYILWITEAKTEATRTKRLETAIEWMSEGKARNW    -0.579
HMEITGKYKAKEDIKLKVIPLISSLDLQDIKQNTELEVKDTMNNWAYVTVQEKQGWVVLEKIEKVE    -0.631
HMPVRIYEISKKLGLENKEVLATAKSLGIAAAKVPSSSLDKITAEYLEEEILKSHPEVAARLK    0.142
HMSNTPHSREVLLEMDAVRRLLAVGEEKGEVDRADLQGAFEEAELGRGDLDGVLSILREYDVPLAR    0.0604
HMSSLTPRETEVLSRMAQGDANTSIAERLVITEKAVQKHINAIFAKLGLAEEPTSARRVLAVLAFLR    -0.539
HMAQVSDTGELEGVVDGVLAANAKSVADFQAGKENAFQYLIGQVMKETKGKANPEVVATLLRTKLS    -0.523
HMFNISEKLKKYRNALGLTQTEVAEKIEITKPTYASYEKGKDISIGTLKKLADLFEVSFESFFSE    -0.283
HMSVLLKEEGSLQLARHGAAYFIIYSAQEHPNQRRHLKISEEESNRIMEGTPIEEIFLAYSG    -1.67
HMTIQNSILDEIPNIGASRKRAILEAFGSVHRLRKASPEMISAKVEGIGPEMAQAIHDYLVKHPAT    0.066
HMKNKRERLGIISEILRMQVIGSQEELLDILRAKGYDVTQATLSRDLKVLKVAKTPLSNGAYKYVLPPQ    -1.39

# evaluate next
Query block: Look up soluble fraction (log2): HMAARLMRALIPYAQGGLLAKLHEDGQVLSEEYTGEGIEVKALADEQLFGRLTVQLGEQAVSWQD
Result block: -0.163
